Where do these numbers come from? They come from paper PMC12723664.

Item-by-item account of Ki
# Tested Target: BtsuOBP83b
# Procedure Summary: Fluorescence competitive binding assay (1-NPN probe), recombinant BtsuOBP83b
# Parameters: species or system Bactrocera tsuneonis
# Condition Details: relative dissociation constant calculated from IC50; competition with 1-NPN; ligand 4–32 μmol/L; pH 7.4; read-out: Ki (μM) OBP83b

Field: example entries. Status: answers known.
{"columns": ["Molecule", "Ki"],
 "data": [
  ["CC/C=C\\CCO [cis-3-Hexen-1-ol]", "31.8 µM"],
  ["C/C=C/C(=O)OCC [Ethyl crotonate]", "> 50 µM"],
  ["CC1=C[C@@H]2C(=C(C)CC[C@H]2C(C)C)CC1 [(+)-delta-Cadinene]", "> 50 µM"],
  ["CC/C=C\\CCOC(=O)CC [cis-3-Hexenyl propionate]", "> 50 µM"],
  ["CC1=CC(=O)C(C(C)C)CC1 (centres unmarked) [Piperitone]", "> 50 µM"],
  ["CCCCOC(=O)CCC [Butyl butyrate]", "> 50 µM"],
  ["CCCCCCCCO [1-Octanol]", "39.1 µM"],
  ["CCCCCCO [1-Hexanol]", "31.8 µM"],
  ["C=C1CC/C=C(/C)CC[C@@H]2[C@@H]1CC2(C)C [Isocaryophyllene]", "> 50 µM"],
  ["CCCC=CC=O [2-Hexenal]", "31.9 µM"]
]}

# next molecule below
What Ki value was documented for this molecule, CCCCCCCC(=O)OCCCC [Butyl caprylate] ?
> 50 µM
